- Assay Details: Selectivity expressed as the ratio of Ki of [3H]prazosin to Ki of [3H]-clonidine
Lab note: compare Selectivity against 4. Equal or greater, write yes. Smaller, write no.

Known results for compounds:
{"columns": ["Compound", "Group Label"],
 "data": [
  ["Nc1nc2c(s1)CCN1CCCCC21 (stereo not given)", "yes"],
  ["c1cnc2[nH]c3c(c2c1)CCN1CCCCC31 (stereo not given)", "no"],
  ["c1ccc2c3c(sc2c1)C1CCCCN1CC3 (stereo not given)", "no"],
  ["c1cc2c(s1)C1CCCCN1CC2 (stereo not given)", "yes"]
]}

Query block: Threshold query (Selectivity >= 4) on c1cnc2c(c1)CCN1CCCCC21 (stereo not given)
Result block: no
